target: SARM1 (50-724) (Homo sapiens (Human))
pIC50: −log10 of the molar value.
measuredProperty: pIC50

{"molecule": "Cc1ccncc1-c1ccc(O)c(O)c1F [Compound 39]", "measuredProperty": "pIC50", "readoutValue": "4.52 to 4.82"}

Provide the documented pIC50 with SARM1 (50-724) (Homo sapiens (Human)) as the system for O=c1[nH]c2ccc(-c3cncc(Nc4cccc(F)c4)c3)cc2o1 [Compound 101] > 5.30

Provide the documented pIC50 with SARM1 (50-724) (Homo sapiens (Human)) as the system for Nc1cncc(-c2ccc3[nH]c(=O)oc3c2)c1 [Compound 77] 4.82 to 5.30

Provide the documented pIC50 with SARM1 (50-724) (Homo sapiens (Human)) as the system for Cc1ccncc1-c1ccc(O)cc1 [Compound 9, 4-(4-methylpyridin-3-yl)phenol] > 5.30

Provide the documented pIC50 with SARM1 (50-724) (Homo sapiens (Human)) as the system for Cc1ccncc1-c1cccc(S(N)(=O)=O)c1 [Compound 7] > 5.30

Provide the documented pIC50 with SARM1 (50-724) (Homo sapiens (Human)) as the system for Cc1ccncc1-c1ccc(F)c(O)c1 [Compound 19, 2-fluoro-5-(4-methylpyridin-3-yl)phenol] 4.82 to 5.30

Provide the documented pIC50 with SARM1 (50-724) (Homo sapiens (Human)) as the system for COc1cccc(Nc2cncc(-c3ccc4[nH]c(=O)oc4c3)c2)c1 [Compound 97] > 5.30

Provide the documented pIC50 with SARM1 (50-724) (Homo sapiens (Human)) as the system for Cc1ccncc1-c1ccc2[nH]nc(C#N)c2c1 [Compound 92] > 5.30

Provide the documented pIC50 with SARM1 (50-724) (Homo sapiens (Human)) as the system for Cc1ccncc1-c1ccc(NC(=N)N)cc1 [Compound 69] 4.52 to 4.82

----------
These molecules were tested on SARM1 (50-724) (Homo sapiens (Human)); IC50 is the recorded read-out.

{"molecule": "Cc1cc(C)c(-c2ccc3[nH]c(=O)oc3c2)cn1", "IC50": "15 to 30 µM"}
{"molecule": "O=c1[nH]c2ccc(-c3cncc(Nc4nccs4)c3)cc2o1", "IC50": "< 5 µM"}

// returns reported IC50 for input O=c1cc(-c2cccnc2)cc[nH]1 [Compound 1, [3,4′-bipyridin]-2′(1′H)-one] 5 to 15 µM

// returns reported IC50 for input `Cc1ccncc1-c1cccc(O)c1Cl` > 30 µM

// returns reported IC50 for input `Cc1ccncc1-c1ccc2cc[nH]c2c1` 15 to 30 µM

// returns reported IC50 for input `CC(C)(C)OC(=O)N1CCCc2ccc(Nc3cncc(-c4ccc5[nH]c(=O)oc5c4)c3)cc21` < 5 µM

// returns reported IC50 for input `Cc1ccncc1-c1cc2cc[nH]c2cc1F` > 30 µM

// returns reported IC50 for input `Cc1ccncc1-c1ccc(O)c(Cl)c1` < 5 µM

----------
pIC50: −log10 of the molar value.
These compounds were tested on SARM1 (50-724) (Homo sapiens (Human), UniProt Q6SZW1); pIC50 is the recorded read-out.
Sequence (Q6SZW1 50-724): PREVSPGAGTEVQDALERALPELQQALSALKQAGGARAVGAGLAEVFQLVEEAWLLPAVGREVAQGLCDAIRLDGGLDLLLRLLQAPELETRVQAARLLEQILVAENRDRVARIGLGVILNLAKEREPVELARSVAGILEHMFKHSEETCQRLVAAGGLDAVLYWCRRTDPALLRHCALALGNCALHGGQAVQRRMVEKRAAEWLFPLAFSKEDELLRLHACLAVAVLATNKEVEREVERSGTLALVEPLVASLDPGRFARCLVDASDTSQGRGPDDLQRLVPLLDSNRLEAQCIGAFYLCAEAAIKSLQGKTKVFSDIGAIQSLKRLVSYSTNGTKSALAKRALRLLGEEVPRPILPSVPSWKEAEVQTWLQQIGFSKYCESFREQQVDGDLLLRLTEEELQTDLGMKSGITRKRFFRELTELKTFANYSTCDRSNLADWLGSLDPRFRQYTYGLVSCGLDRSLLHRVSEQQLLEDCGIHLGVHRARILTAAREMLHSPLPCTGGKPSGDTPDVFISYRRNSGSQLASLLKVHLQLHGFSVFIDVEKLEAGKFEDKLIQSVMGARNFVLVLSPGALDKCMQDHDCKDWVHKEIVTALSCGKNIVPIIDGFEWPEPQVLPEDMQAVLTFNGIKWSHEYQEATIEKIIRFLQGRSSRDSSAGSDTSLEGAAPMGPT

{"compound": "CCc1ccncc1-c1ccc2[nH]c(=O)oc2c1", "assayedTarget": "SARM1 (50-724) (Homo sapiens (Human), UniProt Q6SZW1)", "pIC50": "> 5.30"}

Provide the documented pIC50 with SARM1 (50-724) (Homo sapiens (Human), UniProt Q6SZW1) as the system for `Cc1ccncc1-c1ccc2c(c1)CNC(=O)N2` < 4.52

Provide the documented pIC50 with SARM1 (50-724) (Homo sapiens (Human), UniProt Q6SZW1) as the system for `O=c1[nH]c2ccc(-c3cncc(Nc4ccccc4)c3)cc2o1` > 5.30

Provide the documented pIC50 with SARM1 (50-724) (Homo sapiens (Human), UniProt Q6SZW1) as the system for `Cc1ccncc1-c1cnc2[nH]ncc2c1` 4.52 to 4.82
